Where a name gives a salt, the structure may show the parent alone.
# Ki measurements, system: purified human Factor XIa (Homo sapiens, UniProt P03951)
# Sequence (P03951 388-625 limits assumed): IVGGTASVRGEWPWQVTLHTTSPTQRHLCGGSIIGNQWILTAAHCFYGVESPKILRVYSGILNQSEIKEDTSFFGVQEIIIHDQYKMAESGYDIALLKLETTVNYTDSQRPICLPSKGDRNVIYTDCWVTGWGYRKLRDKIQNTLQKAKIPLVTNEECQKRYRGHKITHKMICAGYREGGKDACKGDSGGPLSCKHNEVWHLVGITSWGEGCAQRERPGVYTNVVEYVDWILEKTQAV
# Sequence (P03951 19-387 partner limits assumed): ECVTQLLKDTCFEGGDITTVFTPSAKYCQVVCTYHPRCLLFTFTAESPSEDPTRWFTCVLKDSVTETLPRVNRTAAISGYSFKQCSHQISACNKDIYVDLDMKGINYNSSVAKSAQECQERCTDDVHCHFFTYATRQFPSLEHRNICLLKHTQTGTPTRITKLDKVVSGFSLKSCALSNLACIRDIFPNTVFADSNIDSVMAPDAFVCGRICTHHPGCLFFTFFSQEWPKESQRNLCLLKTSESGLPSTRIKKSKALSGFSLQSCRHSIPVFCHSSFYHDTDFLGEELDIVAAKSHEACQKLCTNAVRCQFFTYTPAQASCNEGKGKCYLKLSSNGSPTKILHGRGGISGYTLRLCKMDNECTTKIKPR
property measured: Ki (nM)

# compound, Ki, nM
records = [
    ("COC(=O)Nc1ccc(-c2nc(CNC(=O)CCc3cc(Cl)ccc3-n3cnnn3)[nH]c2Cl)cc1 [Example 2, trifluoroacetic acid salt]", 16.8),
    ("COC(=O)Nc1ccc(-c2nc(CN(Cc3ccccc3)C(=O)/C=C/c3cc(Cl)ccc3-n3cnnn3)[nH]c2Cl)cc1 [Example 10, trifluoroacetic acid salt]", 1510),
]

I. COC(=O)Nc1ccc(-c2cncc(CNC(=O)CCc3cc(Cl)ccc3-n3cnnn3)c2)cc1 [Example 6, trifluoroacetic acid salt]
II. COC(=O)Nc1ccc(-c2ccnc(CNC(=O)/C=C/c3cc(Cl)ccc3-n3cnnn3)c2)cc1 [Example 7, trifluoroacetic acid salt]
III. COC(=O)Nc1ccc(-c2[nH]c(CNC(=O)/C=C/c3cc(Cl)ccc3-n3cnnn3)nc2Cl)cc1 [Example 1, trifluoroacetic acid salt]
IV. COC(=O)Nc1ccc(-c2cncc(CNC(=O)/C=C/c3cc(Cl)ccc3-n3cnnn3)c2)cc1 [Example 5, trifluoroacetic acid salt]
V. O=C(/C=C/c1cc(Cl)ccc1-n1cnnn1)NCc1nc(-c2ccc3c(c2)CCC(=O)N3)c(Cl)[nH]1 [Example 3, trifluoroacetic acid salt]
List from greatest to least Ki. Lab note: record answer as labels in requested order.
I, II, IV, III, V
(I: 1250 nM, II: 475 nM, IV: 283 nM, III: 27.3 nM, V: 12.1 nM)
